Consider the following variants; for each one, report its Hill coefficient n.
B1: library; the commonest letter at each place (parent)
chain: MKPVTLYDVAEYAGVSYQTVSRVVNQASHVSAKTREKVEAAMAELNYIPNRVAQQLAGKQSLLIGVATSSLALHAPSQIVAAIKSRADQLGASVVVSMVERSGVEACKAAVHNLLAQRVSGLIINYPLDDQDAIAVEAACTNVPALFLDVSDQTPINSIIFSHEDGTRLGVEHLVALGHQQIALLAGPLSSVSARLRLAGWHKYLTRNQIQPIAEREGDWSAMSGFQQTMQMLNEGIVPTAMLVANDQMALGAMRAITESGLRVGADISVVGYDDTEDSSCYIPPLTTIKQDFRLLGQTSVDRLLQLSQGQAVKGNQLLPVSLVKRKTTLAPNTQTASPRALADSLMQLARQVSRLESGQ

# Variants of: B1
# assay.details: Hill coefficient n (dimensionless); higher = steeper dose response
# test.settings: with IPTG
Answers are plain numbers.

• S69F V95A A110E I159S = 1.64
• S279T = 1.48
• V9I R255C E259D T336I R355Q = 1.38
• Q231R = 1.67
• L90Q R101G C140G L169Q K290I T329S = 1.54
• Q89L S158C E172K Q291H = 1.33
• P76Q V150A N157D Q181H I210L M254T I283N = 1.11
• I83F G200C = 1.48
• V80L S97T = 1.57
• V301M = 1.53

For every item below, please supply its Hill coefficient n.
1. S97T
2. I160F L185F
3. D88N
4. D88G
5. L62M A109V D149E M242V P285S Q317R
6. I83M V136E
7. I64V V95M Q131R T141A D152E N208I A222T L295M K327N

Reply:
1.58
1.77
1.33
1.41
1.37
1.21
1.55
